# assay_explanation: chemical genetic growth profiling, strain panel (AID 1159580);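 further: tested at 20 µM; growth read once vehicle control cultures reached saturation at 30 °C; 1 = growth at the plate median or of vehicle wells; lower values mean less growth of the strain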
# conditions: S. cerevisiae deletion strains, growth OD, locus YNL153C, strain GIM3, active compounds read low
Among all 5,500 compounds or so, about 2,000 (36%) were called active. Another 18% or so got no clear call; they are omitted. This is one part of the list.
Param label: returns 1.0 when normalized growth < 1, returns 0.0 otherwise, including exact equality.

compound | class_label
C[C@H](N)[C@H](O)c1cccc(O)c1 | 0.0
COc1c2c(nc3ccccc13)OC(C(C)(O)CO)C2 (configuration not stated) | 0.0
CC1=C2[C@H]3OC(=O)[C@@H](C)[C@@H]3CC[C@@]2(C)C=CC1=O | 0.0
CSc1ccc2c(c1)N(CCC1CCCCN1C)c1ccccc1S2 (configuration not stated) | 1.0
COc1ccc(C=C2C(=O)NC(=S)NC2=O)cc1Br | 1.0
Cc1nc2ccccn2c(=O)c1CCN1CCC(C(=O)c2ccc(F)cc2)CC1 | 0.0

* * *

# assay_explanation: chemical genetic growth profiling, strain panel (AID 1159580)
# conditions: S. cerevisiae deletion strains, growth OD, locus YGR229C, strain SMI1, active compounds read low
Hit rate of the full screen: of about 5,500 compounds, about 2,000 (36%) were called active. Inconclusive results (about 18%) are left out. Some of the results follow.
Here, each record is paired with measured normalized growth data.
assay_endpoint: normalized growth

molecule | assay_endpoint | result_value
CC(=O)O[C@H]1CC[C@]2(C)C3=CC(=O)[C@@]4(C)C(C[C@@H]5OC6(OCC(C)CC6Br)[C@@H](C)[C@@H]54)C3CC[C@H]2C1 (some centres undefined) | normalized growth | 1.03
N[C@H](Cc1ccccc1)C(=O)O | normalized growth | 1.03
CCCCSP(=O)(SCCCC)SCCCC | normalized growth | 1.04
CN1CCN(C2=Nc3ccccc3Oc3ccc(Cl)cc32)CC1 | normalized growth | 0.983

* * *

Listed compounds paired with reported normalized growth
# assay_explanation: chemical genetic growth profiling, strain panel (AID 1159580)
# conditions: S. cerevisiae deletion strains, growth OD, locus YNL128W, strain TEP1, active compounds read low
Screen size: about 5,500 compounds; about 2,000 (36%) were called active. Inconclusive results (about 18%) are left out. The list shows a part of the results.
assay_endpoint: normalized growth

compound | result_value
CC1CC2C3CC(F)C4=CC(=O)C=CC4(C)C3(F)C(O)CC2(C)C1C(=O)COC(=O)C(C)(C)C (configuration not stated) | 0.908
CNC(=O)[C@H]1O[C@@H](n2cnc3c(NCc4ccc(I)cc4)nc(Cl)nc32)[C@H](O)[C@@H]1O | 0.981
CNCCCN1c2ccccc2CCc2ccccc21 | 1.02
CC(CN1c2ccccc2Sc2cccnc21)N(C)C (configuration not stated) | 1.02
COc1ccc(N=Cc2ccccc2O)cc1 | 0.986
Nc1ccn(C2O[C@H](CO)[C@@H](O)[C@H]2O)c(=O)n1 (some centres not stated) | 1.01
CC(=O)c1ccc(-c2ccc(Cl)c(Cl)c2)o1 | 0.82
Cc1cc(NS(=O)(=O)c2ccc(NS(=O)(=O)c3cc(C)c(Cl)cc3C)cc2)no1 | 0.981
CCC(=O)Nc1ccc(Cl)c(Cl)c1 | 0.988
CC(CN(C)C)CN1c2ccccc2Sc2ccccc21 (configuration not stated) | 0.988
CCN(CC)C(C)CN1c2ccccc2Sc2ccccc21 (configuration not stated) | 0.987
CCN(CC)C(C)C(=O)N1c2ccccc2Sc2ccccc21 (configuration not stated) | 0.997

* * *

# assay_explanation: chemical genetic growth profiling, strain panel (AID 1159580)
# conditions: S. cerevisiae deletion strains, growth OD, locus YDL040C, strain nat1, active compounds read low
In all, about 5,500 compounds went through this assay and about 2,000 (36%) were called active. Another 18% or so got no clear call; they are omitted. This is one part of the list.

compound | normalized growth
CN(C)CCOC(=O)C(c1ccccc1)C1(O)CCCC1 (stereo unspecified) | 0.974
COC(=O)CCCOc1ccc(Cl)cc1Cl | 0.954
OC[C@H]1OC([S-])[C@H](O)[C@@H](O)[C@@H]1O.[Au+] (stereo partly specified) | 1.01
NCC(CC(=O)O)c1ccc(Cl)cc1 (stereo unspecified) | 0.995
O=C(O)c1ccccc1C(=O)Nc1ccc(S(=O)(=O)Nc2nccs2)cc1 | 0.977
CN(C)CCOC(=O)COc1ccc(Cl)cc1 | 0.973

* * *

Parameter: normalized growth. Scope: all listed entries.
# assay_explanation: chemical genetic growth profiling, strain panel (AID 1159580);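 further: tested at 20 µM; growth read once vehicle control cultures reached saturation at 30 °C; 1 = growth at the plate median or of vehicle wells; lower values mean less growth of the strain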
# conditions: S. cerevisiae deletion strains, growth OD, locus YNL175C, strain NOP13, active compounds read low
Screen size: about 5,500 compounds; about 2,000 (36%) were called active. Inconclusive results (about 18%) are left out. The list shows a part of the results.

compound | normalized growth
CCCC(CCC)C(=O)O | 1
CCCCS(=N)(=O)CCC(N)C(=O)O (configuration not stated) | 0.97
CNC(=O)[C@H]1O[C@@H](n2cnc3c(NCc4ccc(I)cc4)nc(Cl)nc32)[C@H](O)[C@@H]1O | 0.962
CS(=N)(=O)CC[C@H](N)C(=O)O (some centres not stated) | 0.989
O=c1[nH]cnc2[nH]ncc12 | 1.01
O=c1ccn([C@@H]2O[C@H](COP(=O)(O)OP(=O)(O)O)[C@@H](O)[C@H]2O)c(=O)[nH]1 | 0.988
C[C@]12N[C@H](Cc3ccccc31)c1ccccc12 | 0.98
CCN(CC)C(C)C(=O)N1c2ccccc2Sc2ccccc21 (configuration not stated) | 1.04
CC(CN1c2ccccc2Sc2ccccc21)N(C)C (configuration not stated) | 1.01
CN1CCN(c2ccc3ccccc3n2)CC1 | 1.02
CC1CCN(CC[C@H]2CCCN2S(=O)(=O)c2cccc(O)c2)CC1 | 1.01
C[C@H](N)CN1CCc2ccc(Br)cc21 | 1.01

* * *

# assay_explanation: chemical genetic growth profiling, strain panel (AID 1159580);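 further: tested at 20 µM; growth read once vehicle control cultures reached saturation at 30 °C; 1 = growth at the plate median or of vehicle wells; lower values mean less growth of the strain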
# conditions: S. cerevisiae deletion strains, growth OD, locus YPL256C, strain CLN2
Hit rate of the full screen: of about 5,500 compounds, about 2,000 (36%) were called active. About 18% were inconclusive and are not listed. Rule as the data show it: active = normalized growth mostly below about 0.91 (no sharp cut-off); inconclusive = no clear call, values can overlap the other calls; inactive = mostly above about 0.92. The list shows a part of the results.
Outcome codes: active, inactive

compound | class_label
CCCCS(=N)(=O)CCC(N)C(=O)O (stereo unspecified) | inactive
CCSCCC(N)C(=O)O (stereo unspecified) | inactive
CCN(CC)C(C)CN1c2ccccc2Sc2ccccc21 (stereo unspecified) | inactive
CC1=C2[C@H]3OC(=O)[C@@H](C)[C@@H]3CC[C@@]2(C)C=CC1=O | inactive
CCCC(CCC)C(=O)O | inactive
Cc1ncc([N+](=O)[O-])n1CC(C)O (stereo unspecified) | inactive
CC(=O)N=c1sc(S(N)(=O)=O)nn1C | inactive
c1ccc2c(c1)CN1CCCC1=N2 | inactive
CS(=O)(=O)c1sc(C(=O)Sc2ccc(Cl)cc2)c2c1C=CCC2 | active
COc1cc2c(cc1-c1cc3cc4ccoc4cc3oc1=O)OCO2 | inactive
CC(C)(C)C(=O)/C(C#N)=C/c1c(Cl)cccc1Cl | active
O=C(CCn1c(=O)oc2ccccc21)Sc1ccc(Cl)cc1Cl | active
CC(CN1c2ccccc2Sc2ccccc21)N(C)C (stereo unspecified) | inactive
Cc1cc(O)c(C=O)c2c1C(=O)Oc1c(COC(=O)/C=C/C(=O)O)c(O)c(C(=O)O)c(C)c1O2 | inactive
CCCC(C(=O)OCCN(CC)CC)(c1ccccc1)c1ccccc1 | inactive
S=P(N1CC1)(N1CC1)N1CC1 | inactive
COC(=O)c1c(C)cc(OC(=O)c2c(C)cc(O)c(C=O)c2O)c(C)c1O | inactive
CNC(=O)n1nc(C)c(Cc2csc3ccc(Cl)cc23)c1C | active
CCN(CC)CCOC(=O)C(c1ccccc1)c1ccccc1 | inactive
CC(CN(C)C)CN1c2ccccc2CCc2ccccc21 (stereo unspecified) | inactive
COc1ccc(C(=O)NCc2csc3ccc(Cl)cc23)cc1OC | inactive
C=C[C@H]1CN2CC[C@H]1C[C@@H]2[C@H](O)c1ccnc2ccccc12 | inactive
O=c1cc(-c2ccccc2)oc2cc(O)c(O)c(O)c12 | active
CNCCCN1c2ccccc2CCc2ccccc21 | inactive
CCN(CC)CCOCCOC(=O)C(CC)(CC)c1ccccc1 | inactive
CC(=O)Nc1nnc(S(N)(=O)=O)s1 | inactive

* * *

# assay_explanation: chemical genetic growth profiling, strain panel (AID 1159580);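 further: tested at 20 µM; growth read once vehicle control cultures reached saturation at 30 °C; 1 = growth at the plate median or of vehicle wells; lower values mean less growth of the strain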
# conditions: S. cerevisiae deletion strains, growth OD, locus YGL078C, strain dbp3, active compounds read low
Hit rate of the full screen: of about 5,500 compounds, about 2,000 (36%) were called active. Inconclusive results (about 18%) are left out. The list shows a part of the results.
Catalogue of compounds with associated normalized growth
assay_endpoint: normalized growth

compound | assay_endpoint | result_value
NS(=O)(=O)c1cc2c(cc1Cl)NC(C1CC3C=CC1C3)NS2(=O)=O (stereo not drawn) | normalized growth | 0.986
O=c1cc(-c2ccccc2)oc2cc(O)cc(O)c12 | normalized growth | 0.957
CCN(CCCc1ccccc1)CCCc1ccccc1 | normalized growth | 1.02
NNCCc1ccccc1 | normalized growth | 0.995
CN(C(=O)CN(CCO)CC(=O)N(C)C(C)(C)Cc1ccccc1)C(C)(C)Cc1ccccc1 | normalized growth | 0.983
COc1cc(S(C)=O)ccc1-c1nc2ncccc2[nH]1 (stereo not drawn) | normalized growth | 0.993
Cc1cccc(Nc2ccncc2S(=O)(=O)NC(=O)NC(C)C)c1 | normalized growth | 1.02
O=c1cc(-c2cc(O)c(O)c(O)c2)oc2cc(O)cc(O)c12 | normalized growth | 0.979

Measured values drawn from PubChem BioAssay AID1159580 for this set.
